Ref: paper PMC7380166

# Tested on: HepaRG cells
# measurementNotes: Incubations with HepaRG cells, metabolite identification by LC-HRMS/MS
# Format: in vitro ADME, human
# conditionsUsed: 250 μM parent NPS, 24 h, cell culture medium, one replicate of n = 3; n.d. = not detected
Answer each item with its documented Absolute peak area, HepaRG [250 μM].
Answers are plain numbers.

Look over these answered cases.
COc1ccccc1CNC(C)Cc1ccc(OC)c(OC)c1 (stereo not shown) [3,4-DMA-NBOMe] | 1.03E+10
CCCCC(N)C(=O)c1ccc(F)cc1 (stereo not shown) [MP1] | 1.82E+06
CC1(C)COC(=O)C1NC(=O)c1nn(CCCCO)c2ccccc12 (stereo not shown) [MB5] | 2.40E+05
CC(C)(CO)C(NC(=O)c1nn(CCCCF)c2ccccc12)C(=O)O (stereo not shown) [MB13] | 3.13E+07
O=C(O)c1nn(CCCCF)c2ccccc12 [MB1] | 3.82E+06

Provide Absolute peak area, HepaRG [250 μM] values for the following items, in order.
1. CCCCC(C(O)c1ccc(F)cc1)N1CCCC1 (stereo not shown) [MP2]
2. COc1ccccc1CN(O)C(C)Cc1ccc(OC)c(OC)c1 (stereo not shown) [MN12]
3. COC(=O)C(NC(=O)c1nn(CCCCF)c2ccccc12)C(C)(C)C (stereo not shown) [4F-MDMB-BINACA]
4. CC(C)(C)[C@H](NC(=O)c1nn(CCCC(=O)O)c2ccccc12)C(=O)O [MB10]
5. CN1C[C@H](C(N)=O)C=C2c3cccc4[nH]cc(c34)C[C@H]21 [ML1]
6. CCC(=O)n1cc2c3c(cccc31)C1=C[C@@H](C(=O)N(CC)CC)CN(C)[C@@H]1C2 [Metabolite 1P-LSD, 1-propionyl-d-lysergic acid diethylamide]

A)
6.41E+07
4.60E+05
5.18E+08
8.32E+05
1.93E+06
5.41E+06

Provide Absolute peak area, HepaRG [250 μM] values for the following items, in order.
1. CCN(CCO)C(=O)C1C=C2c3cccc4[nH]cc(c34)CC2N(C)C1 (stereo not shown) [ML14]
2. CCNC(=O)[C@@H]1C=C2c3cccc4[nH]cc(c34)C[C@H]2NC1 [ML3]
3. CCCCC(C(=O)c1ccc(F)cc1)N1CCCC1 (stereo not drawn) [Metabolite 4F-PHP, 4-fluoro-alpha-pyrrolidinohexiophenone]
4. CC(C)(C)C(NC(=O)c1nn(CCCCF)c2ccccc12)C(=O)O (stereo not shown) [MB8]

A)
4.63E+06
2.20E+06
5.45E+09
1.63E+09

Provide Absolute peak area, HepaRG [250 μM] values for the following items, in order.
1. CCCCC(C(O[C@@H]1O[C@H](C(=O)O)[C@@H](O)[C@H](O)[C@H]1O)c1ccc(F)cc1)N1CCCC1 (stereo partly shown) [MP10]
2. CCC(=O)n1cc2c3c(cccc31)C1=C[C@@H](C(=O)N(CC)CC)CN[C@@H]1C2 [ML20]
3. COc1ccc(CC(C)NCc2ccccc2O)cc1OC (stereo not shown) [MN7]
4. COC(=O)[C@@H](NC(=O)c1nn(CCCCO)c2ccccc12)C(C)(C)C [MB11]

A)
1: 2.91E+04; 2: 3.74E+06; 3: 1.17E+08; 4: 6.93E+06

====

# measurementNotes: Incubations with pooled human liver S9 fraction (pHLS9), metabolite identification by LC-HRMS/MS
# Format: in vitro ADME
# conditionsUsed: 25 μM 4F-MDMB-BINACA, 6 h incubation, one replicate of n = 2; n.d. = not detected
attributeMeasured: Absolute peak area, pHLS9 6 h [25 μM]
Give bare numbers.

CC1(C)COC(=O)C1NC(=O)c1nn(CCCC(=O)O)c2ccccc12 (stereo not shown) | 1.57E+05
CC(C)(CO)C(NC(=O)c1nn(CCCCF)c2ccccc12)C(=O)O (stereo not shown) | 6.42E+05
COC(=O)C(NC(=O)c1nn(CCCCF)c2ccccc12)C(C)(C)C (stereo not shown) | 2.17E+08
COC(=O)[C@@H](NC(=O)c1nn(CCCC(=O)O)c2ccccc12)C(C)(C)C | 3.34E+06
CC(C)(C)[C@H](NC(=O)c1nn(CCCCO)c2ccccc12)C(=O)O | 1.91E+06
COC(=O)[C@@H](NC(=O)c1nn(CCCCO)c2ccccc12)C(C)(C)C | 3.89E+05
CC1(C)COC(=O)C1NC(=O)c1nn(CCCCO)c2ccccc12 (stereo not shown) | 1.26E+06
COC(=O)[C@@H](NC(=O)c1n[nH]c2ccccc12)C(C)(C)C | 2.82E+05

Provide Absolute peak area, pHLS9 6 h [25 μM] values for the following items, in order.
1. CC(C)(C)C(NC(=O)c1nn(CCCCF)c2ccccc12)C(=O)O (stereo not shown)
2. CC(C)(C)[C@H](NC(=O)c1n[nH]c2ccccc12)C(=O)O

A)
["2.77E+08", "1.27E+06"]
